Please provide measured Ki for the entries that follow.
- test_system: Neuropeptide Y receptor type 1 (Homo sapiens)
- Sequence (P25929 whole entry): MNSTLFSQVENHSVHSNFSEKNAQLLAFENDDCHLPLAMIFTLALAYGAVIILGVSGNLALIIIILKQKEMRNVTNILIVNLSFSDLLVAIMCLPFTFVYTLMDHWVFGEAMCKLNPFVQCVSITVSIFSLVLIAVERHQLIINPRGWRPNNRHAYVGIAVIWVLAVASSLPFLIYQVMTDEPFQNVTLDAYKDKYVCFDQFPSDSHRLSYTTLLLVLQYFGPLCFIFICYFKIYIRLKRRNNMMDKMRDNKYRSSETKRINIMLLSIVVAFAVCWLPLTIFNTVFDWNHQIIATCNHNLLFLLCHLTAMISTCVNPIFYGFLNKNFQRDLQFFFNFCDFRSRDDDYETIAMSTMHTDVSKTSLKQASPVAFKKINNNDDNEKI
- measurement_description: Displacement of NG-([2,3-3H]propionyl)-BIBP-3226 from NPY Y1 receptor in human SK-N-MC cells
# number only, unit nM dropped from output

Exercise: Look up Ki: N/C(=N/C(=O)CCCn1cc(-c2ccccc2)nn1)NCCC[C@@H](NC(=O)C(c1ccccc1)c1ccccc1)C(=O)NCc1ccc(O)cc1
Key: 49

Exercise: Follow-up entry: N/C(=N/C(=O)CCCn1cc(COCCOCCOCCOCCOCc2cn(CCCC(=O)/N=C(\N)NCCC[C@@H](NC(=O)C(c3ccccc3)c3ccccc3)C(=O)NCc3ccc(O)cc3)nn2)nn1)NCCC[C@@H](NC(=O)C(c1ccccc1)c1ccccc1)C(=O)NCc1ccc(O)cc1
Key: 58

Exercise: Same question, N/C(=N/C(=O)COCCOCCOCC(=O)/N=C(\N)NCCC[C@@H](NC(=O)C(c1ccccc1)c1ccccc1)C(=O)NCc1ccc(O)cc1)NCCC[C@@H](NC(=O)C(c1ccccc1)c1ccccc1)C(=O)NCc1ccc(O)cc1 this time
Key: 6.1

Exercise: N/C(=N/C(=O)CCCn1cc(-c2ccc(-c3cn(CCCC(=O)/N=C(\N)NCCC[C@@H](NC(=O)C(c4ccccc4)c4ccccc4)C(=O)NCc4ccc(O)cc4)nn3)cc2)nn1)NCCC[C@@H](NC(=O)C(c1ccccc1)c1ccccc1)C(=O)NCc1ccc(O)cc1 , same question.
Key: 43
